- Target Or Test System: S1-Fc (SARS-CoV-2 S1 protein, Fc fusion) (SARS-CoV-2, UniProt P0DTC2 16-685)
- Test Protocol: SPR (Biacore T200), S1 captured on anti-human Fc chip, scFv injected
Reported Metric: kon (M⁻¹ s⁻¹)
Entry rule: numbers only, all in M⁻¹ s⁻¹.

Use these answered entries as a reference point.
**Query** Find the recorded kon belonging to 2020EP54-B02 scFv (scFv) scFv: QVQLVQSGAEVKKPGASVKVSCKASGYTFIGYYMHWMRQAPGQGLEWMGRINPNSGGTNYAEKFQGRVTMTRDTSISTAYMELSRLTFNDTAVYYCARWDSSSWKFDSWGQGTLVTVSSGGGGSGGGGSGGGGSEIVLTQSPSSLSASVGDRVTITCQASQDISNYLNWYQQKPGKAPKLLIYDASNLETGVPSRFSGSGSGTDFTFTISSLQPEDIATYYCQQYDNLPITFGQGTRLEIK and report it.
**Result** 39900

**Query** Do the same for 2020EP66-D03 scFv (scFv) scFv: QVQLQQWGAGLLKPSETLSLTCAVYGGSFSGYYWSWIRQPPGKGLEWIGEINHSGSTNYNPSLKSRVTISVDTSKNQFSLKLSSVTAADTAVYYCARGPPLWNYGKGFDYWGQGTLVTVSSGGGGSGKGGSGGGGSQPVLTQPPSASGTPGQRVTISCSGSSSNIGSNYVYWYQQLPRTAPKLLIYRNNQRPSGVPDRFSGSKSGTSASLAISGLRSEDEADYYCAAWDDSLSAWVFGGGTKLTVL please
**Result** 131000

Okay, now this binder:
**Query** Find the recorded kon belonging to 2020EP54-E10 scFv (scFv, also called 2020EP054-E10) scFv: QVQLVQSGAEVRKPGSSVKVSCKASGGTFSSFAISWVRQAPGQGLEWMGGIIPIFDTATYAQNFQGRVRMTADESTNTAYMELSSLTSEDTAVYYCARSTSYYDSRGDYKVGDFDYWGQGTLVTVSSGGGGSGGGGSGGGGSAIRMTQSPSSLSASVGDRVTITCQASQDISNYLNWYQQKPGKAPKLLIYDASNLETGVPSRFSGSGSGTDFTFTISSLQPEDIATYYCQQYDNLPLTFGGGTKVEIK and report it.
**Result** 316000
